CC50 values for the molecules below.
method: in vitro
experimental_setup: dog

I have this molecule here, CCOC(=O)C1=C[C@@H](OC(CC)CC)[C@H](NC(C)=O)[C@@H](N)C1 , and I need its recorded CC50.
> 1220 µM

Now for a further molecule.
I have this molecule here, NC(=O)c1ncn([C@@H]2O[C@H](CO)[C@@H](O)[C@H]2O)n1 , and I need its recorded CC50.
1570 µM

====

System: B-type flu virus (jifang/97-13)
method: organism not typed
experimental_setup: MDCK, 36 h, read-out: Activity for inhibiting B-type flu viruses IC50
test_readout: IC50 (µM)
Write it as a number; the unit µM goes unstated.

I have this compound here, NC(=O)c1ncn([C@@H]2O[C@H](CO)[C@@H](O)[C@H]2O)n1 , and I need its recorded IC50.
11.9
